Values compiled from the supplement of paper PMC6555819.

# Test system: THRa homodimer (NR concentration 90 nM)
# experimentSummary: PBM binding z-score (relative to random genomic background probes); higher = stronger binding; sequences stand for … in GC…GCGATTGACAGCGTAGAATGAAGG
Exercise: state measured PBM binding z-score for each of the sequences provided.
Give a plain numeric answer without units written out.

Challenge: Request body: readout PBM binding z-score, system THRa homodimer (NR concentration 90 nM), query ATTTGTAGGTTACATCCGGGTCATTCAGGCTATG . Return the value.
Response given: 3.39

Challenge: Form: Entry = AGAATGGGGTTATACGTAGATCAGGGAAGAAAGT | System = THRa homodimer (NR concentration 90 nM) | PBM binding z-score = ____
Response given: 1.53

Challenge: Look up PBM binding z-score with THRa homodimer (NR concentration 90 nM) for this sequence: CGAACTAGGTCAAGGCCAGTGAATCTCCGCACGC
Response given: 0.958

Challenge: Return PBM binding z-score measured with THRa homodimer (NR concentration 90 nM) given this sequence: CCTTAGGGGTCAAGGTTATAGCACGGGTGGTACG
Response given: 1.39

Challenge: Lookup: PBM binding z-score / THRa homodimer (NR concentration 90 nM) / CCTTACGGGTTACTCCAGGTTATAGCATCGGAGT
Response given: 0.236

Challenge: API: value(readout=PBM binding z-score, system=THRa homodimer (NR concentration 90 nM)) for record ATATGTAGGTTGGGGTCATTCAGAAAGTAGGGAA
Response given: 3.84

Challenge: Identify the measured PBM binding z-score of TATACGGGGTCAAAGGCCAGAGTACGAATGTCGA for THRa homodimer (NR concentration 90 nM).
Response given: 1.72

Challenge: Report PBM binding z-score for TCTCGGAGGACACAAAGGTCAGAGCTTTCCAGAG tested on THRa homodimer (NR concentration 90 nM).
Response given: 0.913

Challenge: Requested read-out PBM binding z-score, target or system THRa homodimer (NR concentration 90 nM), entry TCTTGTAGATCAATAGAAGTTAAGAAAGTGCGCT
Response given: -0.786

Challenge: Kindly state the measured PBM binding z-score obtained for CAAACCAGGTCAAGAGGTCAAAGTCCGCTTCCCG with THRa homodimer (NR concentration 90 nM).
Response given: 3.54

Challenge: GET /values?readout=PBM binding z-score&system=THRa homodimer (NR concentration 90 nM)&item= CCTCGGAGGACAACAGGAGGTCATAGCTGCCAGA
Response given: 1.5

Challenge: // lookup PBM binding z-score | system=THRa homodimer (NR concentration 90 nM) | key= CCTTACGGGTCCCTCCAGGTTATAGCATCGGAGT
Response given: 0.1
